# Lookup of reported log10 of IC50 keyed by entry
# Tested on: HCT-116
# test details: MTS cell proliferation assay, HCT-116
# Type: cell-based
# condition description: Homo sapiens, HCT-116, HCT-116, Table 1A; read-out: HCT-116 MTs
endpoint: log10 of IC50 (log10 of the value in nM)

| compound | endpoint | reading |
| --- | --- | --- |
| O=C(NCCN1CCCC1)c1c(=O)c2cc(F)c(N3CCC(c4cnccn4)C3)c(F)c2n2c1sc1ccccc12 (stereo not shown) | log10 of IC50 | 3.54 |
| O=C(NCCN1CCCC1)c1c(=O)c2cc(F)c(SCCc3cnccn3)cc2n2c1sc1ccccc12 [drawing 15] | log10 of IC50 | 2.76 |
| CN1CCCC1CCNC(=O)c1c(=O)c2cc(F)c(SCCc3cnccn3)cc2n2c3ccccc3n(C)c12 (stereo not shown) | log10 of IC50 | 3.36 |
| Cn1c2ccccc2n2c3cc(F)c(F)cc3c(=O)c(C(=O)NCCN3CCCC3)c12 | log10 of IC50 | 2.48 |
| CN1CCCC1CCNC(=O)c1c(=O)c2cc(SCCc3cnccn3)ccc2n2c1sc1ccccc12 (stereo not shown) | log10 of IC50 | 3.79 |
| CC(C)N1CCN(c2cc3c(cc2F)c(=O)c(C(=O)NCCN2CCCC2)c2sc4ccccc4n23)CC1 | log10 of IC50 | 2.48 |
| Nc1ccccc1Sc1c(F)cc2c(=O)c(C(=O)NCCN3CCCC3)c3sc4ccccc4n3c2c1F | log10 of IC50 | 3.38 |
